target: human recombinant Yes [a.a. 2–543 (end)] (Homo sapiens); construct: human recombinant Yes [a.a; 2–543 (end)]; purchased BPS Bioscience 40488; assay: ADP-Glo kinase assay, inhibition rates of Yes phosphorylation activity (first and second screening); assay type: biochemical; details: first screening; mean of n = 4 wells; 10 μmol L−1 compound
Parameter: First screening IR (inhibition rate) (%)

The examples below pair each entry with its known result.
N#Cc1c(NC(=O)COC(=O)c2cn(-c3ccccc3)nc2-c2cccnc2)oc(-c2ccccc2)c1-c1ccccc1; -9
OCCNc1nc2ccccc2n1-c1ncnc2sc3c(c12)CCCC3; 7

A: COCCCn1c(=O)c2ccccc2n2c(SCc3cn4ccccc4n3)nnc12
B: Cc1ccc(-c2cc(-c3cccc(Br)c3)nc3ccccc23)cc1
Enquiry: For the pair A and B , which member has the lower First screening IR (inhibition rate) number? Record your answer as the label of the chosen record.
Return: A

* * *

target: human recombinant Yes [a.a. 2–543 (end)] (Homo sapiens, UniProt P07947); construct: human recombinant Yes [a.a; 2–543 (end)]; purchased BPS Bioscience 40488; experiment: ADP-Glo kinase assay, inhibition rates of Yes phosphorylation activity (first and second screening); type: biochemical; settings: first screening; mean of n = 4 wells; 10 μmol L−1 compound
Sequence (P07947 2-543): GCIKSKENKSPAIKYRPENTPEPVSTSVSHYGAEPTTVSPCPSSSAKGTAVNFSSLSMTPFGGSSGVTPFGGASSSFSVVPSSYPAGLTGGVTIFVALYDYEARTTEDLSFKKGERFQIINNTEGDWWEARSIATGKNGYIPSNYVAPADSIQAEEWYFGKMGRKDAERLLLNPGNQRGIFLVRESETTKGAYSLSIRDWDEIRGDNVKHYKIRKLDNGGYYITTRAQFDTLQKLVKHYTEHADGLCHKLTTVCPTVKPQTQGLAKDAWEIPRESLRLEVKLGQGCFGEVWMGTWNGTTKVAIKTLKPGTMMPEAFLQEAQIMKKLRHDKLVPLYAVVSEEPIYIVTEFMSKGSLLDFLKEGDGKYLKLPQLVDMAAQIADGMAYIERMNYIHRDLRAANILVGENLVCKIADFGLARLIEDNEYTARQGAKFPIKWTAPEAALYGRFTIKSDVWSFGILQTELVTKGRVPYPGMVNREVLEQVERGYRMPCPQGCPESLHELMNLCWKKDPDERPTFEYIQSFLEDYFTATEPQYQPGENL
Parameter: First screening IR (inhibition rate) (%)

O=C(CN1CCN(c2nc(-c3cccnc3)nc3scc(-c4ccccc4)c23)CC1)N1CCCCC1; 9
Cc1c(-c2ccc(O)cc2)nc2ccc(Cl)cc2c1-c1ccccc1Cl.Cl; 40
O=C(Nc1cc(-c2ccc(Br)s2)[nH]n1)c1ccc2c(c1)COC2; 68

1: O=S(=O)(Nc1ccc(N2CCOCC2)cc1)c1ccc(Cl)c(C(F)(F)F)c1
2: Cc1ccc(C(N)=O)c(OCc2ccc(C#N)cc2F)c1
3: CC(C)(C)c1ccc(OCc2nnc(SCC(=O)N3CCC(c4ccccc4)=N3)n2N)cc1
Enquiry: Please give the order of these compounds when sorted by First screening IR (inhibition rate), largest value leading. Please express your ranking as an ordered list of the labels.
Return: 3, 2, 1
(3: 40%, 2: 9%, 1: -2%)

I: COc1ccc(-c2csc3nc(C)nc(N4CCCN(CC(=O)NC(C)(C)C)CC4)c23)cc1OC
II: O=S1(=O)CCC(N2CCN(Cc3cc(Cl)cc(C4CCCCC4)c3O)CC2)C1 (centres unmarked)
Enquiry: // which entry has the larger First screening IR (inhibition rate) value, I or II ? Return value: the label identifying the chosen record.
Return: II

* * *

target: human recombinant Yes [a.a. 2–543 (end)] (Homo sapiens, UniProt P07947); construct: human recombinant Yes [a.a; 2–543 (end)]; purchased BPS Bioscience 40488; assay: ADP-Glo kinase assay, inhibition rates of Yes phosphorylation activity (first and second screening); assay type: biochemical; details: first screening; mean of n = 4 wells; 10 μmol L−1 compound
Parameter: First screening IR (inhibition rate) (%)

Below, each entry is followed by its recorded First screening IR (inhibition rate) result.
CCc1ccc(/C=C2/CN(C)Cc3c2nc2ccccc2c3C(=O)O)cc1; 0
Cn1c(CNS(=O)(=O)c2ccc(C(F)(F)F)cc2)nc2ccccc21; -18
CC(CCc1ccc(O)cc1)NC(=O)Nc1ccc(NC(=O)c2ccco2)cc1 (centres unmarked); -12
N#Cc1ccc(C(=O)OCc2ccc(Br)cn2)[nH]1; 9

A: CC(C)(C)n1cc(C(=O)NCc2ccc(-c3cccnc3)cc2)cn1
B: Cc1cc(C)c(NC(=O)CNC(=O)COc2ccccc2C(=O)N2CCCCC2)c(C)c1
Enquiry: Please indicate which item has the smaller measured First screening IR (inhibition rate): A versus B Indicate which entry you chose by stating its label.
Return: B
(B: -1%, A: 5%)

1: Nc1ccnc(-c2cncs2)n1
2: CCOc1ccc(-n2c(O)c(C=NCCCN3CCOCC3)c3ccccc3c2=O)cc1
3: CN(C(=O)c1ccc(C2SCCCS2)cc1)c1ccc(C(N)=O)cc1
4: Cc1cccc(-c2nc(C(C)C)no2)c1NC(=O)CCc1ccccc1
5: O=S(=O)(c1ccccc1C(F)(F)F)N1CCN(Cc2ncc(-c3ccc(Cl)cc3)o2)CC1
Enquiry: Order these by First screening IR (inhibition rate), descending, and give the full ranking. The response must list the labels following the requested ordering.
Return: 4, 3, 5, 2, 1

* * *

target: human recombinant Yes [a.a. 2–543 (end)] (Homo sapiens, UniProt P07947); construct: human recombinant Yes [a.a; 2–543 (end)]; purchased BPS Bioscience 40488; assay: ADP-Glo kinase assay, inhibition rates of Yes phosphorylation activity (first and second screening); type: biochemical; settings: first screening; mean of n = 4 wells; 10 μmol L−1 compound
Parameter: First screening IR (inhibition rate) (%)

1: CC1(NC(=O)OC(C)(C)C)CCN(C(=O)c2cc3c(cc2O)CCCC3)CC1
2: Cc1cccc(-c2[nH]ncc2CNC(C)C(C)n2cccn2)c1 (stereo not drawn)
Enquiry: Quick check, higher First screening IR (inhibition rate) between 1 and 2 ? Label of pick, please.
Return: 2
(2: -7%, 1: -20%)

* * *

molecular target: human recombinant Yes [a.a. 2–543 (end)] (Homo sapiens, UniProt P07947); construct: human recombinant Yes [a.a; 2–543 (end)]; purchased BPS Bioscience 40488; experiment: ADP-Glo kinase assay, inhibition rates of Yes phosphorylation activity (first and second screening); assay type: biochemical; conditions: first screening; mean of n = 4 wells; 10 μmol L−1 compound
Parameter: First screening IR (inhibition rate) (%)

CCCCCn1c(N)c(C(=O)NCCN2CCOCC2)c2nc3ccccc3nc21; 48
Cc1ccc(CSCC(=O)NC(Cc2ncc[nH]2)c2ccccc2)cc1 (centres unmarked); 28
CCn1c(CNc2ccc3c(C)cc(=O)oc3c2)nc2cc(S(=O)(=O)N3CCCCC3)ccc21; -9
O=S1(=O)CCC(S(=O)(=O)c2ccccc2)C1 (centres unmarked); 4

I: COc1ccc(-c2cc(C(=O)Nc3ccc(N4CCN(C)CC4)cc3C)c3ccccc3n2)cc1OC
II: CSc1ncccc1C(=O)OCC(=O)N1N=C(c2ccc3ccccc3c2)CC1c1ccccc1 (centres unmarked)
III: CC(Sc1n[nH]c(-c2cccs2)n1)c1nc2ccccc2c(=O)[nH]1 (centres unmarked)
IV: Nc1ncnc(Nc2ccc(Br)cc2)n1
Enquiry: Task for the reader: rank each entry by its First screening IR (inhibition rate), from the minimum upward. Present the labels in the sequence the task asks for.
Return: III, I, II, IV
(III: 2%, I: 3%, II: 9%, IV: 24%)

* * *

target: human recombinant Yes [a.a. 2–543 (end)] (Homo sapiens); construct: human recombinant Yes [a.a; 2–543 (end)]; purchased BPS Bioscience 40488; assay: ADP-Glo kinase assay, inhibition rates of Yes phosphorylation activity (first and second screening); format: biochemical; details: first screening; mean of n = 4 wells; 10 μmol L−1 compound
Parameter: First screening IR (inhibition rate) (%)

CCN(CCO)c1nc(-c2ccccn2)nc2scc(-c3ccccc3)c12; 19
CCOC(=O)/C(C#N)=C\C1=C2OC(c3ccccc3)=CC(c3ccccc3)=C2CCC1; -7
CC(C)(C)C1CCC(C(=O)N2CCC(C(=O)N3CCCCCC3)CC2)CC1 (stereo not drawn); 7
Cc1cn2nc(NCc3ccc(N4CCNC(=O)C4)cc3)sc2n1; 39
O=C(CN1C(=O)c2ccccc2C1=O)NCc1cn(Cc2ccccc2)nc1-c1ccccc1; 24

I: CCCCc1ccc(NC(=S)N2CC3(C)CC2CC(C)(C)C3)cc1 (stereo not drawn)
II: O=C(Nc1ccc(F)cc1)c1nnc(CSc2ncc(-c3ccccc3)[nH]2)s1
III: CN(C)S(=O)(=O)CCCS(=O)(=O)Cc1ccc(Cl)cc1
IV: Cc1cc(C)c(C)c(S(=O)(=O)N(C)C2CCS(=O)(=O)C2)c1C (stereo not drawn)
Enquiry: Provide the items ranked by increasing First screening IR (inhibition rate). Put the labels in the order asked and list them.
Return: I, III, II, IV
(I: -6%, III: -4%, II: 0%, IV: 1%)

A: O=C(/C=C/c1ccsc1)NC(c1ccccc1)c1cccs1 (stereo not drawn)
B: CCOC(=O)c1c(N)n(CC(C)NC(=O)C2CC2)c2nc3ccccc3nc12 (stereo not drawn)
Enquiry: Form: Entry with minimum First screening IR (inhibition rate) (choose one): A / B Label of pick, please.
Return: B

* * *

Molecular target: human recombinant Yes [a.a. 2–543 (end)] (Homo sapiens, UniProt P07947)
Construct: human recombinant Yes [a.a; 2–543 (end)]; purchased BPS Bioscience 40488
Experiment: ADP-Glo kinase assay, inhibition rates of Yes phosphorylation activity (first and second screening)
Assay type: biochemical
Conditions: first screening; mean of n = 4 wells; 10 μmol L−1 compound
Procedure: All inhibitory assays of the phosphorylation activity of Yes were performed in accordance with the Promega Technical Manual for the ADP-Glo™ Kinase Assay (Fitchburg, WI, USA. Catalog number: V9102). The human recombinant Yes [a.a. […] The screening was conducted in three steps consisting of the first screening, the second screening, and the IC50 determination, as can be illustrated in Fig. 1b. First, we determined the inhibition rates of the 1,991 compounds. […]
Parameter: First screening IR (inhibition rate) (%)

P: NC(=O)CCn1c(SCc2cn3ccccc3n2)nnc1-c1cccs1 [Compound Z269761360]
Q: O=C(COc1ccccc1)NCc1nc2ccccc2[nH]1 [Compound Z26782031]
Enquiry: Looking at recorded values for First screening IR (inhibition rate), does P or Q come in lower? I would appreciate it if you answered with the label of your choice.
Return: Q

A: O=C(COc1ccc2ccccc2c1)Nc1nc2ccccc2[nH]1 [Compound Z27666510]
B: O=C(NCC(c1ccccc1Cl)N1CCCC1)C1CCN(C(=O)c2cccs2)CC1 (centres unmarked) [Compound Z87671607]
C: Cc1cc(C(=O)CSCc2nc(N)nc(N(C)C)n2)c(C)n1C1CC1 [Compound Z197454120]
D: COc1cccc(-c2cc(-c3ccccc3)c3cc(Br)ccc3n2)c1 [Compound Z1409331244]
E: Cc1occc1S(=O)(=O)CCCS(=O)(=O)C(C)C [Compound Z1822689954]
Enquiry: Ascending by First screening IR (inhibition rate), please: list the molecules accordingly. List the labels, following the order given in the request.
Return: B, D, E, C, A
(B: -35%, D: -16%, E: -9%, C: 4%, A: 8%)
